// values below are reported IC50
assay: Inhibition of CYP1A2 (unknown origin)

> print(dat)
                  compound.structure.string  result.value
1  FC(F)(F)c1nccc2cc(Nc3n[nH]c4cccnc34)ccc12      < 500 µM

# evaluate next
Specify IC50 for FC(F)(F)c1nccc2cc(Nc3n[nH]c4nccnc34)ccc12 and stop.
< 500 µM
